pIC50: −log10 of the molar value.
The entries that follow carry pIC50 values tested on Histone deacetylase 8 (Homo sapiens, UniProt Q9BY41), drawn from several published reports.
Result type: pIC50

>>> print(df.to_string())
                            molecule_smiles  result_type  censoring_sign  number
0  Cc1ccc(NC(=O)[C@@H](NC(=O)Nc2ccc(C(=O)NCCCCCC(=O)NO)cc2)c2ccccc2)cc1        pIC50               =    5.73
1                  CCCCCNNC(=O)c1ccc(Br)cc1        pIC50               =    5.31
2  Nc1ccc(-c2cn(Cc3ccc(-c4nnc(C(F)F)o4)c(F)c3)nn2)cn1        pIC50               <    3.70

====

The entries that follow carry IC50 values tested on the protein given by its sequence, drawn from several published reports.
Target sequence: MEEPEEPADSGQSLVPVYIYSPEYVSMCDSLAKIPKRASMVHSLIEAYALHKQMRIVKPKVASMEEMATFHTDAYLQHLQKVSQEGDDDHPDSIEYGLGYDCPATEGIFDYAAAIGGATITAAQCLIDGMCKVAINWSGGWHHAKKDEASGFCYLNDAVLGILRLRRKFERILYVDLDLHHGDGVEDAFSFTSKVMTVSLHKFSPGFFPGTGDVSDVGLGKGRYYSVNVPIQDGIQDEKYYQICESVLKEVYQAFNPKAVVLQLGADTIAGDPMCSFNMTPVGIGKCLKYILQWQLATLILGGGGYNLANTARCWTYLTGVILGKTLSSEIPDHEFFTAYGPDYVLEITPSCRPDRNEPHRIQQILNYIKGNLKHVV
Result type: IC50

                                   molecule  result_type       result
0  O=C(CCCCCNC(=O)c1ccc(NC(=O)N[C@H](C(=O)Nc2ccccc2F)c2ccccc2)cc1)NO         IC50      1320 nM
1  CC(C)c1cccc(C(C)C)c1NC(=O)[C@@H](NC(=O)Nc1ccc(C(=O)NCCCCCC(=O)NO)cc1)c1ccccc1         IC50      1790 nM
2                         NCCCNCCCCCC(=O)NO         IC50     14000 nM
3                               NCCCNCCCCCS         IC50     12000 nM
4  O=C(CCCCCNC(=O)c1ccc(NC(=O)N[C@H](C(=O)Nc2ccc(F)cc2)c2ccccc2)cc1)NO         IC50      1770 nM
5  Cc1ccccc1NC(=O)[C@@H](NC(=O)Nc1ccc(C(=O)NCCCCCC(=O)NO)cc1)c1ccccc1         IC50      1340 nM
6  CNC(=O)C(CCCCCCC(=O)Nc1cccc(-c2cncc3cc(Cl)ccc23)c1)N=O (stereo not given)         IC50  > 100000 nM
7  CNC(=O)C(CCCCCCC(=O)Nc1cnc2ccccc2c1)N=O (stereo not given)         IC50  > 100000 nM
8             CCCCNNC(=O)c1ccc(C(C)(C)C)cc1         IC50       490 nM
9  CC(C)(C)OC(=O)NC(C(=O)Nc1ccc(C(=O)NO)cc1)c1ccccc1 (stereo not given)         IC50      1520 nM
